Biological target: human dopamine type 3 receptor (hD3) (Homo sapiens (Human), UniProt P35462)
Sequence (P35462 whole entry): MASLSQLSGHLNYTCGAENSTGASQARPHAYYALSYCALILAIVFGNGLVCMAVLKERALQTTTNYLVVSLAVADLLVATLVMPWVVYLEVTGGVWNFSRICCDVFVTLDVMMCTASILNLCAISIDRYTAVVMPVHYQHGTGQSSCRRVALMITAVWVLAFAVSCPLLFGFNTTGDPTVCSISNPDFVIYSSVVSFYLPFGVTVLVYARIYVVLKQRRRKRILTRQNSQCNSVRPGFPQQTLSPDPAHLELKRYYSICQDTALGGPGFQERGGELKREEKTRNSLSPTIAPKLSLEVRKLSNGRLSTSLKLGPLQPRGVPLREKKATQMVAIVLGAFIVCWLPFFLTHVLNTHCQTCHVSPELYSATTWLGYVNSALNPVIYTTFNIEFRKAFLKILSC
Assay: [3H]-Spiperone binding assay at hD3 recombinant receptor (CHO-hD3 membranes)
Conditions: pKi only estimated to be accurate to about ±0.3-0.5
Quantity measured: D3 p Ki

- Cn1c(SCCCN2CCOC(c3ccc(C(F)(F)F)cc3)C2)nnc1-c1ccc(-c2ncco2)cc1 (single isomer, unassigned) [Example 15]: 6.36
- Cn1c(SCCCN2CCOC(c3ccc(C(F)(F)F)cc3)C2)nnc1-c1ccc(C(N)=O)cc1 (single isomer, unassigned) [Example 13]: 7.94
- Cc1ncoc1-c1nnc(SCCCCN2CCOC(c3ccc(C(F)(F)F)cc3)C2)n1C (stereo not shown) [Example 4]: 7.05
- Cn1c(SCCCN2CCOC(c3ccc(C(F)(F)F)cc3)C2)nnc1-c1ccc(-c2nnco2)cc1 (stereo not shown) [Example 29]: 7.79

* * *

Molecular target: human dopamine receptor type 2, long variant (hD2L) (Homo sapiens (Human), UniProt P14416)
Test: [3H]-Spiperone binding assay at hD2 recombinant receptor (CHO-Gα16-hD2L membranes)
Here, each record is paired with measured D2 p Ki data.
Quantity measured: D2 p Ki

* Cn1c(SCCCN2CCOC(c3ccc(C(F)(F)F)cc3)C2)nnc1-c1ccc(-c2ncco2)cc1 (single isomer, unassigned) [Example 16] | 5.28
* Cn1c(SCCCN2CCOC(c3ccc(C(F)(F)F)cc3)C2)nnc1-c1ccc(-n2cnnc2)cc1 (stereo not shown) | 5.04
* Cn1c(SCCCN2CCOC(c3ccc(C(F)(F)F)cc3)C2)nnc1-c1cccc(C(N)=O)c1 (stereo not shown) | 4.82
* Cn1c(SCCCN2CCOC(c3ccc(C(F)(F)F)cc3)C2)nnc1-c1nccs1 (stereo not shown) | 5.14
* Cc1ccc(C2CN(CCCSc3nnc(-c4ccc(-c5noc(C)n5)cc4)n3C)CCO2)cc1 (stereo not shown) | 4.50
* Cn1c(SCCCN2CCOC(c3ccc(C(F)(F)F)cc3)C2)nnc1C1CCCCC1 (stereo not shown) | 5.05

* * *

Target: human dopamine type 3 receptor (hD3) (Homo sapiens (Human), UniProt P35462)
Test: [3H]-Spiperone binding assay at hD3 recombinant receptor (CHO-hD3 membranes)
Conditions: pKi only estimated to be accurate to about ±0.3-0.5
Below: a set of entries, each annotated with reported D3 p Ki.
Quantity measured: D3 p Ki

- Cn1c(SCCCN2CCOC(c3ccc(C(F)(F)F)cc3)C2)nnc1-c1ccc(-c2ncco2)cc1 (stereo not drawn) [Example 14]: 8.31
- CC(=O)c1ccc(-c2nnc(SCCCN3CCOC(c4ccc(C(F)(F)F)cc4)C3)n2C)cc1 (stereo not drawn) [Example 32]: 7.18
- Cn1nccc1-c1nnc(SCCCN2CCOC(c3ccc(C(F)(F)F)cc3)C2)n1C (stereo not drawn) [Example 27]: 6.16
- Cc1ccc(C2CN(CCCSc3nnc(-c4ccc(-c5noc(C)n5)cc4)n3C)CCO2)cc1 (stereo not drawn) [Example 37]: 7.07
- Cn1c(SCCCN2CCOC(c3ccc(C(F)(F)F)cc3)C2)nnc1-c1ccc(C(N)=O)cn1 (stereo not drawn) [Example 22]: 7
- Cn1c(SCCCN2CCOC(c3ccc(C(F)(F)F)cc3)C2)nnc1-c1ccc(C(N)=O)nc1 (stereo not drawn) [Example 20]: 7.45
